- Tested on: RXF 393 renal
- protocol: NCI-60 one-dose screen, 48 h
- appliedConditions: 10 µM unless noted
This is part of a sample that, as a whole, favours compounds with a hit. Of some 83,000 tested, about 20% had one in any assay. The source made the active and inactive calls. The calls were made as follows: active = growth percent below 10; inactive = the rest.
Possible outcomes: y (active), n (inactive)

| molecule | answerLabel |
| --- | --- |
| CCCCn1c(C(=O)c2c[nH]c3ccccc23)n[nH]c1=S | n |
| O=c1oc2c(Br)cc(Br)cc2cc1-c1cc(-c2ccc(-c3cc(-c4cc5cc(Br)cc(Br)c5oc4=O)nc(-c4cc5cc(Br)cc(Br)c5oc4=O)c3)cc2)cc(-c2cc3cc(Br)cc(Br)c3oc2=O)n1 | n |
| Cc1ccc(-c2nc3nc(-c4ccc(F)cc4)nc(N4CCCNCC4)c3o2)cc1 | y |
| CCCCCCCCn1ccc2cc(NC(=O)CN3CCN(c4nc(C)cc(N5CCCCC5)n4)CC3)ccc21 | n |
| Cc1ccc(-c2nc(SCC(=O)c3ccc(C#N)cc3)[nH]c(=O)c2C#N)cc1 | n |
| COc1ccc(CN2CCc3c(Cl)nc(N)nc3C2=O)c(OC)c1 | y |
| C[N+]1=C(/C=C\C=C\c2ccccc2)C(C)(C)c2ccccc21 | n |
| CN1CCN(CCNC(=O)c2cccc(CN3c4cccc5c4C(=Cc4cccnc43)N(C)C5=O)c2)CC1 | n |
| O=C(Oc1ccc(CO[N+](=O)[O-])cc1)c1ccccc1 | y |
| COc1ccc(-c2c[nH]c(C(=O)O)c2-c2cc(OC)c(OC)c(OC)c2)cc1 | y |
| S=c1nc(CS)[nH]c2ccccc12 | n |
| COc1ccc(-c2cc(-c3cccc(Cl)c3)c(C#N)c(=O)[nH]2)c(OC)c1 | n |
| [Cu+].[NH-][C@H]1C[N-]C(=O)[C@H]([C@H]2CCN=C(N)N2)[N-]C(=O)/C(=C\NC(N)=O)[N-]C(=O)[C@H](CNC(=O)C[C@@H](N)CCCN)[N-]C(=O)[C@H](CO)[N-]C1=O | n |
| CCCCSc1ccc2nc(-c3ccc(OCCCN=C(N)N)cc3)cn2c1 | n |
| COc1ccc2nc3cc(Cl)ccc3c(NCCCNCCC(C)O)c2c1 (configuration not stated) | y |
| C=C(CN1CC=CCC1)[C@@H]1CC[C@]2(COC(C)=O)CC[C@]3(C)[C@H](CC[C@@H]4[C@@]5(C)CC[C@H](O)C(C)(C)[C@@H]5CC[C@]43C)[C@@H]12 | n |
| C=CCNC(=O)Cc1c(-c2ccc(OC)cc2)oc2c(OC)c3c(c(OC)c12)OCO3 | n |
| Nc1n[nH]c2cccc(C#Cc3cccc(C(=O)Nc4ccc(CN5CCOCC5)c(C(F)(F)F)c4)c3)c12 | y |
| CCOC(=O)c1cc2c(n1Cc1cc(OC)cc(OC)c1Br)-c1nc(NC(C)=O)sc1CCC2 | n |
| COc1cc(-c2nn(-c3cccc(NC(=O)CCN4CCN(C)CC4)c3)cc2-c2ccncc2)ccc1Cl | n |
| C=C(C)[C@@H]1CC[C@]2(C(=O)O)CC[C@]3(C)[C@H](CC[C@@H]4[C@@]5(C)CCC(N)C(C)(C)[C@@H]5CC[C@]43C)[C@@H]12 (some centres not stated) | n |
| COc1cc(-c2nc3occn3c2-c2ccnc(NCCCNS(=O)(=O)c3ccc(O)cc3)n2)ccc1F | n |
| NCCOCCOc1ccccc1 | n |
| FC(F)(F)Sc1ccc(/C=C/c2cc(/C=C/c3ccc(SC(F)(F)F)cc3)n(-c3ccccc3)n2)cc1 | n |
| N#C/C(=N\Nc1ccc(Cl)cc1)C(=O)Nc1cc(-c2ccccc2)nn1-c1ccccc1 | n |
| COc1ccc(-c2[nH]c3ccccc3c2-c2ccc(OC)cc2)cc1 | n |
| Clc1ccc(Nc2nc(Nc3ccc(Cl)cc3)nc(Nc3ccc(-c4cc(-c5cccc(Cl)c5)on4)cc3)n2)cc1 | n |
| C#CCOc1cccc(Nc2ncc3ncn(C4CCN(C(=O)CCl)C4)c3n2)c1 (configuration not stated) | y |
| Clc1cccc(Nc2ncnc3ccc(-c4cncc(-n5cnnn5)c4)cc23)c1 | n |
| C=CCOc1ccc(/C=C2\SC(=S)N(CCc3ccc(O)cc3)C2=O)cc1 | n |
| Nc1nc2ccccc2c2c(=O)c3ccc(Cl)cc3sc12 | n |
| O=C1OCC2=C1C(c1cccc([N+](=O)[O-])c1)c1cc3c(cc1N2CCO)CCC3 (configuration not stated) | n |
| CC1=CC=C(NC(=O)/C=C/c2ccccc2)CC1Nc1nccc(-c2cccnc2)n1 (configuration not stated) | y |
| Cc1ccc(Nc2nc(-c3cc(O)c(C)c(C)c3O)cs2)cc1 | n |
| Nc1nc(Nc2ccc(F)cc2)nn1C(=O)c1cc(Cl)ccc1Cl | n |
| CCN1C(=O)/C(=c2\sc3n(c2=O)C2C(NN=3)N(CC)C(=O)N2CC)c2ccccc21 (configuration not stated) | y |
| C#CCOCC1CN(C)C(=O)O1 (configuration not stated) | n |
